- measurement description: Brain levels of CA from prior plasma/brain PK data
- Format: in vivo
- experimental setup: diAcCA 50 mg/kg PO, mouse; read-out: predicted Cmax in the brain
endpoint label: Cmax

Bench note: what Cmax did CC(=O)Oc1c(C(C)C)cc2c(c1OC(C)=O)[C@@]1(C(=O)O)CCCC(C)(C)[C@@H]1CC2 [diAcCA] show?
~3000 nM

====

- measurement description: in vivo
- experimental setup: male, C57Bl/6, mouse, iv, 3 mg/kg, MRTINF_obs
endpoint label: MRT inf
Quick note: unit goes after the number.

Sample CC(C)c1cc2c(c(O)c1O)[C@@]1(C(=O)O)CCCC(C)(C)[C@@H]1CC2 — what was its MRT inf?
5.46 h

====

- measurement description: in vivo
- experimental setup: mouse, iv, half-life
endpoint label: half-life

For CC(C)c1cc2c(c(O)c1O)[C@@]1(C(=O)O)CCCC(C)(C)[C@@H]1CC2 , what is its reported half-life?
~12 h

====

- measurement description: in vivo
- experimental setup: mouse, po, 10 mg/kg, Cmax of CA in plasma
endpoint label: Cmax (µM)
The reply should contain only the number, in µM.

Which Cmax value belongs to CC(C)c1cc2c(c(O)c1O)[C@@]1(C(=O)O)CCCC(C)(C)[C@@H]1CC2 ?
4.45

====

- measurement description: in vivo
- experimental setup: male, C57Bl/6, mouse, po, 10 mg/kg, F%
endpoint label: bioavailability (%)
Output spec: scalar in %, unitless text.

Find the recorded bioavailability belonging to CC(C)c1cc2c(c(O)c1O)[C@@]1(C(=O)O)CCCC(C)(C)[C@@H]1CC2 [CA, carnosic acid] and report it.
16

====

- measurement description: in vivo
- experimental setup: male, C57Bl/6, mouse, po, 10 mg/kg, T1/2
endpoint label: half-life (h)
Expressed in h, but write only the number.

Which measured half-life value corresponds to CC(C)c1cc2c(c(O)c1O)[C@@]1(C(=O)O)CCCC(C)(C)[C@@H]1CC2 ?
19.9

====

- measurement description: in vivo
- experimental setup: male, C57Bl/6, mouse, iv, 3 mg/kg, T1/2
endpoint label: half-life (h)
Give your result in h as a bare value.

Using the record for CC(C)c1cc2c(c(O)c1O)[C@@]1(C(=O)O)CCCC(C)(C)[C@@H]1CC2 [CA, carnosic acid] , report its half-life.
13

====

- measurement description: in vivo
- experimental setup: mouse, po, 10 mg/kg, average half-life
endpoint label: half-life (h)
Enter your answer as a number in h; do not include the unit.

What value of measured half-life is listed for CC(C)c1cc2c(c(O)c1O)[C@@]1(C(=O)O)CCCC(C)(C)[C@@H]1CC2 [CA, carnosic acid] ?
16.3

====

- measurement description: in vivo
- experimental setup: male, C57Bl/6, mouse, iv, 3 mg/kg, AUCINF_obs
endpoint label: AUC(0-inf) (ng·h/mL)
Give the value, in units of ng·h/mL, as a plain number.

May I ask what AUC(0-inf) has been recorded for CC(C)c1cc2c(c(O)c1O)[C@@]1(C(=O)O)CCCC(C)(C)[C@@H]1CC2 ?
15000

====

- measurement description: in vivo
- experimental setup: mouse, iv, average half-life
endpoint label: half-life (h)
Supply the numeric figure in h, leaving out any unit text.

Could you share which half-life value was measured for CC(C)c1cc2c(c(O)c1O)[C@@]1(C(=O)O)CCCC(C)(C)[C@@H]1CC2 [CA, carnosic acid] ?
11.9

====

- measurement description: in vivo
- experimental setup: mouse, iv, 3 mg/kg, t1/2
endpoint label: half-life (min)
Quick note: give the figure in min, leave out the unit.

I am curious: what half-life value has been reported for CC(C)c1cc2c(c(O)c1O)[C@@]1(C(=O)O)CCCC(C)(C)[C@@H]1CC2 [CA, carnosic acid] ?
713

====

- measurement description: in vivo
- experimental setup: mouse, po, 10 mg/kg, mean Cmax of CA
endpoint label: Cmax (µM)
Supply the numeric figure in µM, leaving out any unit text.

Query (compound): CC(C)c1cc2c(c(O)c1O)[C@@]1(C(=O)O)CCCC(C)(C)[C@@H]1CC2 [CA, carnosic acid] ; field requested: Cmax
4.45

====

- measurement description: in vivo
- experimental setup: mouse, po, 10 mg/kg, AUClast
endpoint label: AUC(0-t) (µM·h)
Numeric only. Scale: µM·h

If you can, please state the reported AUC(0-t) value of CC(C)c1cc2c(c(O)c1O)[C@@]1(C(=O)O)CCCC(C)(C)[C@@H]1CC2 .
28

====

- measurement description: in vivo
- experimental setup: mouse, iv, 3 mg/kg, AUCINF_obs
endpoint label: AUC(0-inf) (ng·h/mL)
Please state the figure in ng·h/mL; there is no need to write the unit.

What value of AUC(0-inf) has been recorded for this entry: CC(C)c1cc2c(c(O)c1O)[C@@]1(C(=O)O)CCCC(C)(C)[C@@H]1CC2
20100

====

- measurement description: in vivo
- experimental setup: male, C57Bl/6, mouse, po, 10 mg/kg, AUCINF_obs
endpoint label: AUC(0-inf) (ng·h/mL)
// units = ng·h/mL; emit number, no label

What value of AUC(0-inf) has been reported for the following molecule? CC(C)c1cc2c(c(O)c1O)[C@@]1(C(=O)O)CCCC(C)(C)[C@@H]1CC2
10700

====

- measurement description: Brain levels of CA from prior plasma/brain PK data
- Format: in vivo
- experimental setup: diAcCA 20 mg/kg PO, mouse; read-out: predicted Cmax in the brain
endpoint label: Cmax

Would you mind telling me what Cmax value was observed for CC(=O)Oc1c(C(C)C)cc2c(c1OC(C)=O)[C@@]1(C(=O)O)CCCC(C)(C)[C@@H]1CC2 ?
~1200 nM

====

- measurement description: in vivo
- experimental setup: male, C57Bl/6, mouse, iv, 3 mg/kg, Cl_obs
endpoint label: clearance (mL/min/kg)
Kindly provide the numeric value in mL/min/kg only, without the unit symbol.

Recorded clearance of CC(C)c1cc2c(c(O)c1O)[C@@]1(C(=O)O)CCCC(C)(C)[C@@H]1CC2 , please.
3.3

====

- measurement description: in vivo
- experimental setup: mouse, iv, 3 mg/kg, tmax
endpoint label: Tmax (min)
The reply should be a number in min, with the unit left off.

Query (compound): CC(C)c1cc2c(c(O)c1O)[C@@]1(C(=O)O)CCCC(C)(C)[C@@H]1CC2 ; field requested: Tmax
8.4

====

- measurement description: in vivo
- experimental setup: mouse, iv, 3 mg/kg, AUClast
endpoint label: AUC(0-t) (µM·h)
Give the value in µM·h but do not write µM·h after it.

Which AUC(0-t) value is on record for CC(C)c1cc2c(c(O)c1O)[C@@]1(C(=O)O)CCCC(C)(C)[C@@H]1CC2 [CA, carnosic acid] ?
59.5
